Molecular target: Neprilysin (Rattus norvegicus, UniProt P07861)
Sequence (P07861 whole entry): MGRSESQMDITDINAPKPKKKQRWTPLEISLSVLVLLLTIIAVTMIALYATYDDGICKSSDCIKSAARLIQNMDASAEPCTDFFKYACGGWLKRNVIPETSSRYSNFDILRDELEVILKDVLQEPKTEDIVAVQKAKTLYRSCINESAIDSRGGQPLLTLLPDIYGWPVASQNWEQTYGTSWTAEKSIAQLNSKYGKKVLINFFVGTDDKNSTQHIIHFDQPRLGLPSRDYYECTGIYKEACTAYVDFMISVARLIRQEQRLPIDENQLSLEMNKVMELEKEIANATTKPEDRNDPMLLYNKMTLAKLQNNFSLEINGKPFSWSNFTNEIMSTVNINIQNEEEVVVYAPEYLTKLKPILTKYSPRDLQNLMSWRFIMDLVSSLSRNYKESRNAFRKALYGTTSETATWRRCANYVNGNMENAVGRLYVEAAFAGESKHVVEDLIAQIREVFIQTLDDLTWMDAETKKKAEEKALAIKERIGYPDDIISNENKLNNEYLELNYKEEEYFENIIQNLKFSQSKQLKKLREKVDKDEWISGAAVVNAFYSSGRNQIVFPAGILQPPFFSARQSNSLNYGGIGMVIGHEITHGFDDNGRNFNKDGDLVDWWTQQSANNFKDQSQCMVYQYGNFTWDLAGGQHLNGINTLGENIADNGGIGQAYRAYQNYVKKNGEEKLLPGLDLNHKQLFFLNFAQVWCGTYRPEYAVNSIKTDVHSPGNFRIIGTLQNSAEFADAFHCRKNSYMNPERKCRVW
Mark each entry T if its Ki sits below 10 µM, and F for all others.

Example cases with answers are listed next.
compound | category
CC(C)CC(NC(Cc1ccccc1)NP(=O)(O)CNC(=O)c1ccccc1)C(=O)O (configuration not stated) | F
CC(C)C[C@H](NP(=O)(O)O[C@@H]1O[C@@H](C)[C@H](O)[C@@H](O)[C@H]1O)C(=O)N[C@@H](Cc1c[nH]c2ccccc12)C(=O)O | T
CCOP(=O)(CNC(C)=O)NC(Cc1ccccc1)NC(CCSC)C(=O)O (configuration not stated) | F
CC(C)CC(NC(Cc1ccccc1)NP(=O)(O)CNC(=O)CCc1ccccc1)C(=O)O (configuration not stated) | F
CC(C)CC(NC(Cc1ccccc1)NP(=O)(O)CNC(=O)Cc1ccccc1)C(=O)O (configuration not stated) | F
CC(=O)NCP(=O)(O)NC(Cc1ccccc1)NC(CC(C)C)C(=O)O (configuration not stated) | T

Here is another compound to look at.
Qu. Quick check: does CSCCC(NC(Cc1ccccc1)NP(=O)(O)CNC(C)=O)C(=O)O (configuration not stated) have Ki under 10 µM?
Ans. T
